Could you please report measured viability, T/C for the items listed next?
Test system: 323965-272-R-J2-PDC complex spheroid viability
Assay: Anticancer human tumor 323965-272-R-J2-PDC patient-derived pancreatic carcinoma cell line growth inhibition [CLK]
Details: second compound 10 µM; first compound 1 µM; stronger effect = lower value

Lab note: CCCS(=O)(=O)Nc1ccc(F)c(C(=O)c2c[nH]c3ncc(-c4ccc(Cl)cc4)cc23)c1F + CNC(=O)c1ccc(Nc2nc(OC3CCCC3)c3c(-c4ccc5nc(C)oc5c4)c[nH]c3n2)c(OC)c1 gave viability, T/C of 58.8%

Lab note: CC1(C)CCC(CN2CCN(c3ccc(C(=O)NS(=O)(=O)c4ccc(NCC5CCOCC5)c([N+](=O)[O-])c4)c(Oc4cnc5[nH]ccc5c4)c3)CC2)=C(c2ccc(Cl)cc2)C1 + CNC(=O)c1ccc(Nc2nc(OC3CCCC3)c3c(-c4ccc5nc(C)oc5c4)c[nH]c3n2)c(OC)c1 gave viability, T/C of 33.7%

====

Tested on: 323965-272-R-J2-PDC complex spheroid viability
Assay: Anticancer human tumor 323965-272-R-J2-PDC cell line growth inhibition [CLK];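 further: spheroids exposed to agents for seven days before readout; percent of DMSO vehicle control wells so 100% = untreated growth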
Conditions: second compound 0.0316 µM; first compound 0.316 µM; stronger effect = lower value
Could you please report measured viability, T/C for the items listed next?
Give just the numeric value; % need not be written.

Lab note: Nc1ccccc1NC(=O)c1ccc(CNC(=O)OCc2cccnc2)cc1 + CN1CCN(c2cc(C(=O)Nc3cc4cc(-c5cnn(C)c5)ccc4cn3)ccn2)CC1 gave viability, T/C of 93.6

Lab note: CC1COCCN1c1cc(C2(S(C)(=N)=O)CC2)nc(-c2ccnc3[nH]ccc23)n1 (stereo not drawn) + CN1CCN(c2cc(C(=O)Nc3cc4cc(-c5cnn(C)c5)ccc4cn3)ccn2)CC1 gave viability, T/C of 79.5

Lab note: O=c1[nH]cc(F)c(=O)[nH]1 + CNC(=O)c1ccc(Nc2nc(OC3CCCC3)c3c(-c4ccc5nc(C)oc5c4)c[nH]c3n2)c(OC)c1 gave viability, T/C of 110

====

Could you please report measured viability, T/C for the items listed next?
Test system: 323965-272-R-J2-PDC complex spheroid viability
Assay: Anticancer human tumor 323965-272-R-J2-PDC cell line growth inhibition [CLK];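 further: spheroids exposed to agents for seven days before readout; percent of DMSO vehicle control wells so 100% = untreated growth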
Conditions: second compound 3.16 µM; first compound 0.1 µM; stronger effect = lower value
Give just the numeric value; % need not be written.

Lab note: C=CC(=O)N1CCN(c2nc(=O)n(-c3c(C)ccnc3C(C)C)c3nc(-c4c(O)cccc4F)c(F)cc23)C(C)C1 (stereo not given) + CN1CCN(c2cc(C(=O)Nc3cc4cc(-c5cnn(C)c5)ccc4cn3)ccn2)CC1 gave viability, T/C of 2.98

Lab note: C=C(F)C(=O)N1CCN(c2nc(OCC3CCCN3C)nc3c2CCN(c2cccc4cccc(Cl)c24)C3)CC1CC#N (stereo not given) + CN1CCN(c2cc(C(=O)Nc3cc4cc(-c5cnn(C)c5)ccc4cn3)ccn2)CC1 gave viability, T/C of 2.94

Lab note: CC1COCCN1c1cc(C2(S(C)(=N)=O)CC2)nc(-c2ccnc3[nH]ccc23)n1 (stereo not given) + CNC(=O)c1ccc(Nc2nc(OC3CCCC3)c3c(-c4ccc5nc(C)oc5c4)c[nH]c3n2)c(OC)c1 gave viability, T/C of 36.9

Lab note: CCc1c2c(nc3ccc(O)cc13)-c1cc3c(c(=O)n1C2)COC(=O)[C@]3(O)CC + CN1CCN(c2cc(C(=O)Nc3cc4cc(-c5cnn(C)c5)ccc4cn3)ccn2)CC1 gave viability, T/C of 1.79

Lab note: Nc1ccccc1NC(=O)c1ccc(CNC(=O)OCc2cccnc2)cc1 + CNC(=O)c1ccc(Nc2nc(OC3CCCC3)c3c(-c4ccc5nc(C)oc5c4)c[nH]c3n2)c(OC)c1 gave viability, T/C of 47.7
